I'd appreciate it if you could supply inhibition at 25 µM values for the items below.
Tested on: HCT116 cells
Assay: Effect of inhibiting cancer cell proliferation (MTT) in HCT116 cells
Format: cell-based, human
Conditions: Homo sapiens, HCT-116, 48 h, 25 μM, read-out: Cell growth inhibition (%) at 25 μM
Give the value in % but do not write % after it.

Incoming: Please look up its inhibition at 25 µM: CC1CCCC(C)N1C(=N)NC(=N)Nc1cccc(C(F)(F)F)c1.Cl (stereo not shown) [Example 92, hydrochloride]
Outgoing: 100

Incoming: Please look up its inhibition at 25 µM: CC1CCCCN1C(=N)NC(=N)Nc1cccc(C(F)(F)F)c1.Cl (stereo not shown) [Example 79, hydrochloride]
Outgoing: 98.9

Incoming: Please look up its inhibition at 25 µM: CC1CCCN(C(=N)NC(=N)Nc2cccc(OC(F)(F)F)c2)C1.Cl (stereo not shown) [Example 83, hydrochloride]
Outgoing: 100

Incoming: Please look up its inhibition at 25 µM: CC1CCCN(C(=N)NC(=N)NCc2ccc(Cl)cc2)C1.Cl (stereo not shown) [Example 66, hydrochloride]
Outgoing: 67.4
